Each recorded value in this set is attributed to PubChem BioAssay AID1159580.

assay_summary: chemical genetic growth profiling, strain panel (AID 1159580);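 further: tested at 20 µM; growth read once vehicle control cultures reached saturation at 30 °C; 1 = growth at the plate median or of vehicle wells; lower values mean less growth of the strain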
run_parameters: S. cerevisiae deletion strains, growth OD, locus YJR043C, strain POL32, hits give low values
Among all 5,500 compounds or so, about 2,000 (36%) were called active. Another 18% or so got no clear call; they are omitted. The list shows a part of the results.
Can you tell me normalized growth for the items I'm about to list?
A bare number is all that is needed in reply.

Lab note: CO[C@@]1(NC(=O)CSCC#N)C(=O)N2C(C(=O)O)=C(CSc3nnnn3C)CSC21 (stereo partly specified) gave normalized growth of 1.01

// field: normalized growth; key: CC1(C)C2CC(=O)[C@]3(C)C(CC[C@@]4(C)[C@H](c5ccoc5)OC(=O)[C@H]5O[C@]543)[C@@]2(C)C=C[C@@H]1O (stereo partly specified) ; value = 1.03

Summary for this compound, `COc1ccc(CCN2CCC(Nc3nc4ccccc4n3Cc3ccc(F)cc3)CC2)cc1` : normalized growth is 0.998

CC(C)COCC(CN(Cc1ccccc1)c1ccccc1)N1CCCC1 (stereo unspecified) has a reported normalized growth of 0.996

Sample OC(CN1CCN(c2nc3ccc(Cl)cc3s2)CC1)CN1CCCN(c2ncc(C(F)(F)F)cc2Cl)CC1 (stereo unspecified) ; normalized growth observed: 1.02

Entry CC(C)NCC(O)c1cc(O)cc(O)c1 (stereo unspecified) ; normalized growth = 1.02

###

assay_summary: chemical genetic growth profiling, strain panel (AID 1159580);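 further: tested at 20 µM; growth read once vehicle control cultures reached saturation at 30 °C; 1 = growth at the plate median or of vehicle wells; lower values mean less growth of the strain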
run_parameters: S. cerevisiae deletion strains, growth OD, locus YBL105C, strain PKC1, hits give low values
The campaign covered roughly 5,500 compounds. About 2,000 (36%) were called active. Inconclusive results (about 18%) are left out. This is one part of the list.
value_kind: normalized growth
When you answer, write just the number.

Given item O=[N+]([O-])c1ccc2oc(C(O)c3ccc(-c4ccccc4)cc3)cc2c1 (stereo not given) , the value recorded as its normalized growth is 0.976

normalized growth reading for `Cc1c(C(=O)N(Cc2ccccc2)Cc2cccs2)cnn1-c1ccc(Cl)cc1` : 0.989

Reported normalized growth for `CC(=O)ON=C1c2cc([N+](=O)[O-])ccc2-c2ccc([N+](=O)[O-])cc21` was 0.942

Lab book: normalized growth of `CCCCN(C)C(=O)c1cc([N+](=O)[O-])cc2c1-c1ccc([N+](=O)[O-])cc1C2=C(C#N)C#N` noted as 0.988

Quick note, normalized growth for `FC(F)(F)c1cccc(-n2c(CSCc3cccc4ccccc34)n[nH]c2=S)c1` landed at 1

Record `O=c1c2ccccc2[nH]c(=S)n1-c1cccc(C(F)(F)F)c1` , field normalized growth: 0.811

Per the record, `Cc1onc(-c2c(F)cccc2Cl)c1C(=O)NNc1cc(Cl)cc(Cl)c1` has normalized growth of 0.984

Field normalized growth (entry `CC1(C)OC(=O)C(=Cc2cccn2-c2ccc(OC(F)(F)F)cc2)C(=O)O1` ) reads 0.995

Record summary for `N#CC(C#N)=Cc1ccc(-c2ccccc2C(F)(F)F)o1` : reported normalized growth = 0.946

// field: normalized growth; key: `Cc1ccc(NNC(=O)c2c(C)noc2C)cc1Cl` ; value = 0.972

###

assay_summary: chemical genetic growth profiling, strain panel (AID 1159580);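 further: tested at 20 µM; growth read once vehicle control cultures reached saturation at 30 °C; 1 = growth at the plate median or of vehicle wells; lower values mean less growth of the strain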
run_parameters: S. cerevisiae deletion strains, growth OD, locus YMR129W
About 2,000 (36%) of roughly 5,500 compounds were called active. Not shown: some 18% with an inconclusive outcome. Rule as the data show it: active = normalized growth mostly below about 0.91 (no sharp cut-off); inconclusive = no clear call, values can overlap the other calls; inactive = mostly above about 0.92. The list shows a part of the results.
// allowed return values: active, inactive

Exam item: Hey, what did the test say about `Cc1ccc(Cl)c(Nc2ccccc2C(=O)O)c1Cl` ?
Marked response: active

Exam item: Which outcome was entered for the molecule O=C1CC2OCC=C3CN4CC[C@]56c7ccccc7N1C5[C@H]2[C@H]3CC46 (stereo partly drawn) in this test?
Marked response: inactive

Exam item: What classification did `O=c1cc[nH]c(=S)[nH]1` end up with in this test?
Marked response: inactive

Exam item: Per the records of this test, what outcome belongs to `COc1ccc([C@H]2Oc3cc(OC)cc(OC)c3C[C@H]2O)cc1` ?
Marked response: inactive

Exam item: Recorded test outcome, item `OCCOCCN1CCN(C2=Nc3ccccc3Sc3ccccc32)CC1`
Marked response: inactive

Exam item: Per the records of this test, what outcome belongs to `CC1(C)O[C@H]2[C@H](O)C[C@](O)(C(N)=O)C[C@H]2O1` ?
Marked response: inactive

Exam item: Please let me know the test result on file for `CCOC(=O)Nc1nc2ccccc2[nH]1` .
Marked response: inactive

Exam item: Write down the call the test reported for this molecule. Item: `O=C(O)c1ccccc1-c1c2cc(Br)c(=O)cc-2oc2[c]([Hg])c(O)c(Br)cc12`
Marked response: inactive

Exam item: Fill in: this test's call for `Cc1cccc(Nc2ccccc2C(=O)O)c1C` is ___
Marked response: active

Exam item: Recorded test call requested for CCCC(=O)O[C@]1(C(=O)CO)CCC2[C@@H]3CCC4=CC(=O)CC[C@]4(C)C3[C@@H](O)C[C@@]21C (stereo partly drawn)
Marked response: inactive

Exam item: Tell me the recorded outcome of this test for `O=C(Cn1ccnc1[N+](=O)[O-])NCCO` .
Marked response: inactive

Exam item: What classification did `COc1cc([C@@H]2c3cc4c(c(O)c3C[C@H]3COC(=O)[C@@H]32)OCO4)cc(OC)c1OC` end up with in this test?
Marked response: inactive

Exam item: What did the test return for `COc1ccc2c(c1)O[C@H]1c3ccc(OC)cc3OC[C@@H]21` ?
Marked response: inactive
